target: Rat Ganglion (Rattus norvegicus, UniProt P04757+P12392); experiment: Competition binding to receptors in membrane preparations, rat ganglion subtype ([3H]-epibatidine)
Sequence (P04757 26-499): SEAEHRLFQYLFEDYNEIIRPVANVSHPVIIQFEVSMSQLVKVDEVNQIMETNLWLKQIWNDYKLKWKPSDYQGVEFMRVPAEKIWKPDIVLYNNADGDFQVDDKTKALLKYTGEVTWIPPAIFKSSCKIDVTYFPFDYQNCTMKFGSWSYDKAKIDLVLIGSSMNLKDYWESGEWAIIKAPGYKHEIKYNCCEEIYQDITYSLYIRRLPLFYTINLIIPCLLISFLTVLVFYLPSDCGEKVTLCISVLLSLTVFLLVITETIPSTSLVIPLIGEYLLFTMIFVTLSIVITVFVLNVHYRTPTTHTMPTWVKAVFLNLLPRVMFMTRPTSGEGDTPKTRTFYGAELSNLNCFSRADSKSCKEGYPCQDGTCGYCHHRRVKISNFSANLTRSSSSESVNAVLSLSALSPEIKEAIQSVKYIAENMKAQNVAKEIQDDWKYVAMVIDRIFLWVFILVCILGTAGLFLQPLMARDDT
Sequence (P12392 21-495): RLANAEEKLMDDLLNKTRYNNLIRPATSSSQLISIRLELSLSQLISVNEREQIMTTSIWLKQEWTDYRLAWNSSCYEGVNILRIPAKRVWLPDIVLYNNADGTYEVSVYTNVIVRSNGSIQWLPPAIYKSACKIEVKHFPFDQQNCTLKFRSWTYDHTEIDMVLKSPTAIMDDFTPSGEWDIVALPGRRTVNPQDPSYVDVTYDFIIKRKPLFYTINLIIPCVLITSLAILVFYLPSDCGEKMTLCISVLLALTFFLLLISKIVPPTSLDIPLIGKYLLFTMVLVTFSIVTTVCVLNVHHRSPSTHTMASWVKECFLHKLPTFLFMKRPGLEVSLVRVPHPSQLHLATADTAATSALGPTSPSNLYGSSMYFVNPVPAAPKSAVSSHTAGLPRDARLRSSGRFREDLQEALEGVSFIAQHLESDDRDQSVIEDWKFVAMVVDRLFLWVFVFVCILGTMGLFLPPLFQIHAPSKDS
Measured Parameter: pKi
Reminder that pKi means the negative base-10 logarithm of the concentration expressed in mol/L.

These solved cases illustrate the format of a correct answer.
>>> endpoint_result("CN[C@@H](C)C/C=C/c1cncc(O[C@H]2CCN(C(=O)c3ccc(F)cc3)C2)c1")
3.72
>>> endpoint_result("CN[C@@H](C)C/C=C/c1cncc(O[C@H]2CCN(C(=O)C3CCCC3)C2)c1")
5.16
>>> endpoint_result("CN[C@@H](C)C/C=C/c1cncc(O[C@H]2CCN(C(=O)CCC(F)(F)F)C2)c1")
4.48
>>> endpoint_result("CN[C@@H](C)C/C=C/c1cnc(Cl)c(O[C@H]2CCN(C(=O)CC3CCCC3)C2)c1")
5.40

Identify measured pKi associated with `CN[C@@H](C)C/C=C/c1cncc(O[C@H]2CCN(C(=O)C(C)C)C2)c1`
5.24

Identify measured pKi associated with `CN[C@@H](C)C/C=C/c1cncc(O[C@H]2CCN(C(=O)C3CCC3)C2)c1`
4.77

Identify measured pKi associated with `CN[C@@H](C)C/C=C/c1cncc(O[C@@H]2CCN(C(=O)C3CCC3)C2)c1`
4.35

Identify measured pKi associated with `CN[C@@H](C)C/C=C/c1cnc(Cl)c(O[C@H]2CCN(C(=O)CCC(F)(F)F)C2)c1`
4.51

Identify measured pKi associated with `CN[C@@H](C)C/C=C/c1cncc(O[C@@H]2CCN(C(=O)C3CCCC3)C2)c1`
4.55

Identify measured pKi associated with `CN[C@@H](C)C/C=C/c1cncc(O[C@@H]2CCN(C(=O)CC3CCCC3)C2)c1`
3.77

Identify measured pKi associated with `CN[C@@H](C)C/C=C/c1cncc(O[C@H]2CCN(C(=O)C(C)(C)C)C2)c1`
3.89

Identify measured pKi associated with `CN[C@@H](C)C/C=C/c1cncc(O[C@@H]2CCN(C(C)=O)C2)c1`
4.62

Identify measured pKi associated with `CN[C@@H](C)C/C=C/c1cnc(Cl)c(O[C@H]2CCN(C(=O)c3ccc(F)cc3)C2)c1`
5.23

Identify measured pKi associated with `CN[C@@H](C)C/C=C/c1cncc(O[C@H]2CCN(C(=O)CC(C)(C)C)C2)c1`
4.68

Identify measured pKi associated with `CN[C@@H](C)C/C=C/c1cncc(O[C@@H]2CCN(C(=O)c3ccc(F)cc3)C2)c1`
4.00

Identify measured pKi associated with `CN[C@@H](C)C/C=C/c1cncc(O[C@H]2CCN(C(=O)CC3CCCC3)C2)c1`
4.96

====

Below are compounds with their pKi as measured on Human α7 nAChR (Homo sapiens).
Sequence (P36544 23-502): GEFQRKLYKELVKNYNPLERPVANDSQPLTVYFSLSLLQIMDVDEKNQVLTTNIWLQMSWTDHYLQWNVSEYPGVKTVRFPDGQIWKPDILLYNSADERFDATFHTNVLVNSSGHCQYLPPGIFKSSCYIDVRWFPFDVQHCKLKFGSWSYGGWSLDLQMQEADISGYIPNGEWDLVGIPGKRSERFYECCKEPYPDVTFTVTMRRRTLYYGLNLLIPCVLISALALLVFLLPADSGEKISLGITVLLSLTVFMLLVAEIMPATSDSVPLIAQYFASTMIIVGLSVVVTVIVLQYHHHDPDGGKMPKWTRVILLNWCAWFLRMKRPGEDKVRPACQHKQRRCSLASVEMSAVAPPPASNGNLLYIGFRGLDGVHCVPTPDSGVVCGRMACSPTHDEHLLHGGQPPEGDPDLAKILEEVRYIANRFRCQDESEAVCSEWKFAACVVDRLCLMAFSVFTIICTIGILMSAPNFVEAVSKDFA
Reminder that pKi means the negative base-10 logarithm of the concentration expressed in mol/L.

>>> endpoint_result("CN[C@@H](C)C/C=C/c1cnc(Cl)c(O[C@@H]2CCN(C(=O)c3ccc(F)cc3F)C2)c1")
4.66
>>> endpoint_result("CN[C@@H](C)C/C=C/c1cncc(O[C@H]2CCN(C(=O)CC3CCCC3)C2)c1")
4.31
>>> endpoint_result("CN[C@@H](C)C/C=C/c1cncc(O[C@@H]2CCN(C(=O)C3CCC3)C2)c1")
4.24

Identify measured pKi associated with `CN[C@@H](C)C/C=C/c1cnc(Cl)c(O[C@@H]2CCN(C(=O)C(C)(C)C)C2)c1`
4.47

Identify measured pKi associated with `CN[C@@H](C)C/C=C/c1cnc(Cl)c(O[C@H]2CCN(C(=O)CC(C)(C)C)C2)c1`
4.32

Identify measured pKi associated with `CN[C@@H](C)C/C=C/c1cnc(Cl)c(O[C@@H]2CCN(C(=O)C(C)C)C2)c1`
4.44
